FYI, the data here is from ChEMBL document CHEMBL1909046.

# test.target: Sodium-dependent noradrenaline transporter (Homo sapiens, UniProt P23975)
# Sequence (P23975 whole entry): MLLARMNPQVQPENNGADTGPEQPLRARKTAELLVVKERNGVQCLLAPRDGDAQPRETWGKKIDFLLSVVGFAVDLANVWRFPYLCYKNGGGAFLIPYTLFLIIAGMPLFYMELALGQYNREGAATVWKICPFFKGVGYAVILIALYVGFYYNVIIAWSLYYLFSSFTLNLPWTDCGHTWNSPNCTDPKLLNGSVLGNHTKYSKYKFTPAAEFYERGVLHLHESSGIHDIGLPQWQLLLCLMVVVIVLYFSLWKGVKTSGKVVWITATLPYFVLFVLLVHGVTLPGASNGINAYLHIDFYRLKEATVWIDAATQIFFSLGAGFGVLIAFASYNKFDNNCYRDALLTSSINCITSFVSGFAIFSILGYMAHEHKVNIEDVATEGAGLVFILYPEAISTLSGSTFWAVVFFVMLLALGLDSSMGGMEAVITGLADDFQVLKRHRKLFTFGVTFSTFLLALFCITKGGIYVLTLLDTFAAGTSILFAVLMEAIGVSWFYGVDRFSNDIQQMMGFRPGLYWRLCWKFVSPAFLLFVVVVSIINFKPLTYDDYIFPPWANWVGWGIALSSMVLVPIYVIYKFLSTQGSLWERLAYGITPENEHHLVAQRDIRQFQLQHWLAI
# experimental.protocol: DRUGMATRIX: Norepinephrine Transporter radioligand binding (ligand: [125I] RTI-55)
# Assay type: cell membranes, MDCK, Membrane
# test.settings: mdck; Not Active = under 50% inhibition at 10 µM; read-out: Ki
measured.parameter: Ki (nM)
Express it in nM; write the number only.

Input line: Give its Ki value. Item: "THIMEROSAL"
Output line: 923

---

# test.target: 5-hydroxytryptamine receptor 2C (Homo sapiens)
# Sequence (P28335 whole entry): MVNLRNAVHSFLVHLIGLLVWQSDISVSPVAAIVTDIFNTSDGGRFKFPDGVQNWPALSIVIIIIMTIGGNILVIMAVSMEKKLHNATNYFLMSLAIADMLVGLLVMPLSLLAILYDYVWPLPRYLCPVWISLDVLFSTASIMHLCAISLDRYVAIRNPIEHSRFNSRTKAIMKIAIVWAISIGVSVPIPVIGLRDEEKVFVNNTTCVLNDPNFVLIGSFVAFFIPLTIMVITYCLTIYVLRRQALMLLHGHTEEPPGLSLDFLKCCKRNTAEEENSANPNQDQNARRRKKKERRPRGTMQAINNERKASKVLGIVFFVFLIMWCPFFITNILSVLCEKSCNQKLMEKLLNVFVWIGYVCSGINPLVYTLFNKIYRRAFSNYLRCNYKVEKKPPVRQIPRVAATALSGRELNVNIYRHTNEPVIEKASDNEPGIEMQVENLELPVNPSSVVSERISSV
# experimental.protocol: DRUGMATRIX: Serotonin (5-Hydroxytryptamine) 5-HT2C radioligand binding (ligand: [3H] Mesulergine)
# Type: cell membranes, CHO-K1, Membrane
# test.settings: Not Active = under 50% inhibition at 10 µM; read-out: Ki
pKi: −log10 of the molar value.
Cut-off 7 on pKi, inclusive. At or above means Fulfilled; below means Not fulfilled.

{"compound": "CC(C)C[C@H]1C(=O)N2CCC[C@H]2[C@]2(O)O[C@](NC(=O)[C@@H]3C=C4c5cccc6[nH]c(Br)c(c56)C[C@H]4N(C)C3)(C(C)C)C(=O)N12", "category": "Not fulfilled"}
{"compound": "CN1C[C@H](C(=O)N[C@]2(C)O[C@@]3(O)[C@@H]4CCCN4C(=O)[C@H](Cc4ccccc4)N3C2=O)C[C@@H]2c3cccc4[nH]cc(c34)C[C@H]21 [DIHYDROERGOTAMINE]", "category": "Fulfilled"}
{"compound": "COc1cc(N)nc2[nH]c(-c3ccc(F)cc3)c(-c3ccncc3)c12", "category": "Not fulfilled"}

Input line: Is the recorded value of pKi equal to or greater than 7 for this compound? CC[C@@H](CO)NC(=O)[C@@H]1C=C2c3cccc4c3c(cn4C)C[C@H]2N(C)C1 [METHYSERGIDE]
Output line: Fulfilled

Input line: Is the recorded value of pKi equal to or greater than 7 for this compound? "C[C@@H]1C[C@H]2[C@@H]3CCC4=CC(=O)C=C[C@]4(C)C3=CC[C@]2(C)[C@H]1C(=O)CN1CCN(c2cc(N3CCCC3)nc(N3CCCC3)n2)CC1"
Output line: Not fulfilled
